- Assay summary: MAGI-CCR5 and HeLa-R5-16 cytotoxicity, dose response, cytotoxicity control for HIV-1 fusion inhibitor project, cell-based, MAGI and MAGI-HeLa co-culture (AID 2286);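 note: cells exposed to compound for at least 64 h before ATP readout; 100% = median of DMSO vehicle wells with no ATP signal meaning 0%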
- Test parameters: MAGI-CCR5 cells viability, CellTiter-Glo ATP luminescence; at 50 µM (top of the series)
Readout type: viability (%)
Express your answer in %, writing the number without its unit.

Problem: I am curious: what viability value has been reported for O=C(O)CSCC(=O)N(Cc1ccccc1)c1nc(-c2ccccc2)c(-c2ccccc2)s1 ?
Solution: 89

Problem: Record request: viability value, item CC(C)S(=O)(=O)C1=NSC2=NC(=O)/C(=C\c3ccc(-c4cccc(C(=O)O)c4)o3)C(=N)N21
Solution: 101

Problem: Need viability, item CCCCCC#CCC#CCC#CCC#CCCCC(=O)O
Solution: 94.8

Problem: Returns the measured viability for the input compound. Input: CC1=C(C#N)C(=O)NC(=O)/C1=C\c1ccc(-c2cc(C)c(C)cc2[N+](=O)[O-])o1
Solution: 86.5

Problem: # query: viability of entry O=C(O)c1cc(NN=C2c3ccccc3-c3ccccc32)ccc1Cl
Solution: 93.1

Problem: Which viability value is on record for NS(=O)(=O)c1cc(C(=O)NC2CCSc3ccccc32)ccc1Cl (configuration not stated) ?
Solution: 84.3

Problem: Reported viability for O=C(O)c1ccc(Nc2nc(-c3cc4ccccc4oc3=O)cs2)cc1O : what is it?
Solution: 85.6

Problem: Using the record for O=C(O)COc1ccc(Br)cc1C(c1c(C(=O)O)[nH]c2ccccc12)c1c(C(=O)O)[nH]c2ccccc12 , report its viability.
Solution: 91.8

Problem: Need viability of O=C(O)C1Nc2c(cccc2C(F)(F)F)C2C=CCC12 (configuration not stated) , thanks.
Solution: 106

Problem: What does the data say about its viability? Entry: CCCCCOc1ccc(C2C(C(=O)c3ccc(C)o3)=C(O)C(=O)N2c2cc(C)on2)cc1 (configuration not stated)
Solution: 85.1

Problem: Look up viability for this compound: CCOc1cc(/C=C2/C(=N)N3C(=NC2=O)SN=C3S(=O)(=O)C(C)C)ccc1OC(=O)c1ccco1
Solution: 91.5

Problem: # get_value(readout='viability', item= O=C(O)CN1C(=O)/C(=C\c2ccccc2OCc2ccc(Cl)cc2Cl)SC1=S )
Solution: 84.5

Problem: Fill blank: measured viability of the compound CC1=NN(c2ccc(C(=O)O)cc2)C(=O)/C1=C\c1ccc(OC(=O)c2cccs2)cc1 is ____.
Solution: 94.8

Problem: Can you share its viability? I mean this compound: Cc1ccc2nc(N3C(=O)C(O)=C(C(=O)c4ccco4)C3c3cccc(O)c3)sc2c1 (configuration not stated)
Solution: 93.2

Problem: What measured viability goes with COc1ccccc1OCCOc1ccc(/C=C2\C(=N)N3N=C(S(C)(=O)=O)SC3=NC2=O)cc1 ?
Solution: 89.2

Problem: What viability value was documented for this compound, O=C(O)CN1C(=O)/C(=C\c2cc(Br)ccc2OCc2ccc(Cl)cc2Cl)SC1=S ?
Solution: 93.8

Problem: What value of viability has been recorded for this entry: COc1ccc(N=C2S/C(=C\c3ccc(OCC(=O)O)cc3)C(=O)N2CCc2c[nH]c3ccccc23)cc1
Solution: 93.7

Problem: Requested read-out: viability. Entry: CCOC(=O)c1sc(N2C(=O)C(O)=C(C(=O)c3ccco3)C2c2ccc([N+](=O)[O-])cc2)nc1C (configuration not stated)
Solution: 80.3

Problem: Param item = O=C(O)CCCN1C(=O)/C(=C/c2ccc(-c3nc4ccccc4s3)o2)SC1=S ; retrieve measured viability.
Solution: 92.1

Problem: // lookup viability for COc1cc(/C=C2/C(=N)N3C(=NC2=O)SN=C3S(C)(=O)=O)ccc1OS(=O)(=O)c1ccccc1
Solution: 87

Problem: Which viability value is on record for COc1ccc(C(=O)Oc2ccc(/C=N/Nc3ccc(Cl)c(C(=O)O)c3)cc2OC)cc1 ?
Solution: 80.5

Problem: What value of viability has been recorded for this entry: CCOc1cc(/C=C2\SC(=S)N(C(C(=O)O)c3ccccc3)C2=O)ccc1O (configuration not stated)
Solution: 96.9

Problem: Find the recorded viability belonging to COc1cc(/C=N/NC(=O)C(Cc2c[nH]c3ccccc23)NC(=O)OCc2ccccc2)cc([N+](=O)[O-])c1O (configuration not stated) and report it.
Solution: 95

Problem: Look at this compound and give its reported viability. Cc1ccc(S(=O)(=O)Oc2ccc(/C=C3\C(=N)N4N=C(S(C)(=O)=O)SC4=NC3=O)cc2)cc1
Solution: 98.5

Problem: Any idea what viability was measured for COc1cc(/C=C2\S/C(=N/S(=O)(=O)c3ccc(C)cc3)NC2=O)c([N+](=O)[O-])cc1OC ?
Solution: 98.6

Problem: Quick check: viability of COc1ccc(N2C(=O)/C(=C/c3ccco3)C(=O)NC2=S)cc1 ?
Solution: 100

Problem: I am curious: what viability value has been reported for N#Cc1c(-c2ccccc2)nc(SCC(=O)N2c3ccccc3Sc3ccccc32)[nH]c1=O ?
Solution: 85.5

Problem: For the compound COC(=O)c1sc(-c2ccc(C(C)(C)C)cc2)cc1NC(=O)CSCC(=O)O , what viability is on record?
Solution: 83.5

Problem: Which viability value belongs to Cc1cccc(S(=O)(=O)Nc2nc3ccccc3nc2Nc2cccc(C(=O)O)c2)c1 ?
Solution: 88.6

Problem: Fill in: viability of O=c1[nH]c(=S)[nH]c2c1C(c1ccc(Br)cc1)c1c([nH]c(=S)[nH]c1=O)O2 is ___
Solution: 91.7

Problem: // lookup viability for COc1cc(/C=C2/SC(=S)N(CC(=O)O)C2=O)ccc1OCC(=O)Nc1ccc(C)c(C)c1
Solution: 103

Problem: I am curious: what viability value has been reported for COc1ccc(/C=N/NC(=O)c2[nH]c3ccc(Br)cc3c2-c2ccccc2)c(C(=O)O)c1OC ?
Solution: 90.4

Problem: Need viability, item COc1cc(/C=C2\C(=N)N3N=C(S(C)(=O)=O)SC3=NC2=O)ccc1OC(=O)c1cccs1
Solution: 96.7

Problem: Which viability is reported for this compound? Cc1cc(C)c2nc(N3C(=O)C(O)=C(C(=O)c4ccco4)C3c3ccco3)sc2c1 (configuration not stated)
Solution: 91.8

Problem: Give its viability value. Item: O=C1N=c2ccc(Br)cc2=C1c1sc(=S)n(NS(=O)(=O)c2ccccc2)c1O
Solution: 102

Problem: Entry O=C(O)c1cccc(-n2cccc2/C=C2/NC(=O)N(c3ccc(Cl)cc3)C2=O)c1 has what viability?
Solution: 106

Problem: I'd like to know its viability. The compound in question is COc1cc(/C=C2\C(=N)N3N=C(S(C)(=O)=O)SC3=NC2=O)cc(OC)c1OCCOc1ccc(C)cc1
Solution: 101
